- experiment_notes: qHTS Assay for Inhibitors of Bacillus subtilis Sfp phosphopantetheinyl transferase (PPTase): SAR in B subtilis 168
- recorded_conditions: Bacillus subtilis 168 growth inhibition
Records with an inconclusive call do not appear. Activity calls are given as the source filed them. Calls follow the shape of the dose curve; as a rule, active = well fitted inhibition curve with a large enough effect; inconclusive = small, poorly fitted or top-dose-only effect; inactive = flat fitted curve, though single readings scatter.
Could you please report measured Potency for the items listed next?

Would you mind telling me what Potency value was observed for "Cc1ccnc(NC(=S)N2CCN(c3cccc(N(C)C)c3)CC2)c1" ?
46.9 µM (active)

Would you mind telling me what Potency value was observed for "Cc1cc(C)nc(NC(=S)N2CCN(c3cc(Br)cc(C(F)(F)F)c3)CC2)c1" ?
16.7 µM (active)

Would you mind telling me what Potency value was observed for "Cc1cc(C)nc(NC(=S)N2CCN(c3ccc(Cl)cc3Cl)CC2)c1" ?
33.2 µM (active)

Would you mind telling me what Potency value was observed for Cc1ccnc(NC(=S)N2CC3CN(c4cccc(C(F)(F)F)c4)CC3C2)c1 (stereo unspecified) ?
8.35 µM (active)

Would you mind telling me what Potency value was observed for "COc1ccnc(NC(=S)N2CCN(c3cccc(Cl)c3Cl)CC2)c1" ?
13.2 µM (active)

Would you mind telling me what Potency value was observed for Cc1ccnc(NC(=S)N2CC3CN(c4ncc(C(F)(F)F)cc4Cl)CC3C2)c1 (stereo unspecified) ?
16.7 µM (active)
